Numbers sourced from the RNAGym collection of RNA variant scans (doi:10.7554/elife.80360).

B1: HDV Ribozyme (parent)
chain: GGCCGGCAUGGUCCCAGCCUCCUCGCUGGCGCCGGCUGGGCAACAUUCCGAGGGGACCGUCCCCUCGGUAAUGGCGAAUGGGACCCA

Variants of: B1
experiment_notes: self-cleavage, relative activity (ratio to wild type); higher = more cleavage; co-transcriptional
Hi there, I'd appreciate the recorded self-cleavage for every entry that follows.
Answer as a number with no unit attached.

Look up and report measured self-cleavage for this entry: C41G G50C
0.554

Please indicate self-cleavage recorded for G10A A83U
0.322

Please look at this variant and report its self-cleavage: G17C C64U
0.0475

Specify self-cleavage for A43C U60G and stop.
0.68

Look up and state reported self-cleavage for G25C C44A
0.185

State its self-cleavage: C41G C63U
0.844

Retrieve self-cleavage measured for C63A C85G and print it.
0.849

Tell us which self-cleavage value is on record for C7G A42G
0.111

Identify measured self-cleavage corresponding to A8G C19G
0.0594

Give the value of self-cleavage reported for the following: G34U A78G
0.111

Note down self-cleavage recorded for C15A G40C
0.0875

Return value of self-cleavage for input C41A C86G , no commentary.
0.739

Using known records, supply self-cleavage for G52C C62A
0.878

Item G68C U79G : provide self-cleavage
0.516

Look up and report measured self-cleavage for this entry: G6U C24G
0.0462

Give the measured self-cleavage for G38A C84U
0.109

Check the records and state self-cleavage for A70U G80U
0.222

For the variant G54U G82A , report self-cleavage.
0.277

Read off the recorded self-cleavage for C3U G55C
0.867

Name the recorded self-cleavage of the variant listed here: G38U G74C
0.115

Consider the variant G74U C86U . State its measured self-cleavage.
0.648

Give me measured self-cleavage, please, for this variant: A45G U65G
0.782

Complete the entry with self-cleavage for U23G C48U
0.731

Supply recorded self-cleavage for G1C C19U here.
0

Give me measured self-cleavage, please, for this variant: G34A C58A
0.203

Report measured self-cleavage; entry is C48G A56U
1.03

Give the reported value of self-cleavage for this record: C44U U72A
0.678

In one line, give reported self-cleavage of the entry A42C U79C .
0.124

Give self-cleavage for the following variant: A42U G81U
0.145

Output measured self-cleavage for this item: G39C G59A
0.23

Write down self-cleavage measured for item G25U C85A
0.125

Provide self-cleavage value for the following variant: C36U C44G
0.231

Quick one: give measured self-cleavage for U9C G82A
0.266

Complete the entry with self-cleavage for C14U G52U
1.04

Give a short answer stating reported self-cleavage for C14G C41A .
0.776

State, in one line, measured self-cleavage of G29C A51U
0.0308

Respond only with self-cleavage recorded for U12G U46A
0.332

Indicate the recorded self-cleavage value for this variant: C30A A45C
0.0678

In one line, give reported self-cleavage of the entry C3A A56U .
0.71

Write down self-cleavage measured for item G52A G53U
0.773

Name the recorded self-cleavage of the variant listed here: G31U A78U
0.0744
